assay: Cytotoxicity against mouse NCTC clone 929 cells assessed as cell viability at 25 ug/ml incubated for 24 hrs by CCK-8 assay relative to control; type: toxicity, cell-based; details: at 25 µg/mL, read-out: Activity
assay.readout: viability at 24 h, 25 ug/ml
Provide a numeric answer, followed by its unit.

Just so you know, measured viability at 24 h, 25 ug/ml for C=C[C@@](C)(/C=C/c1ccc(OCCCCN(CCCN(C)C)CCCN(C)C)cc1)CCC=C(C)C came out at 74.1%

====

experiment: Cytotoxicity against HEK293 cells assessed as cell viability at 25 ug/ml incubated for 24 hrs by CCK-8 assay relative to control; type: toxicity, cell-based; conditions: human, at 25 µg/mL, read-out: Activity
assay.readout: viability at 24 h, 25 ug/ml (%)
Response body: numeric value in %, unit text excluded.

Just so you know, measured viability at 24 h, 25 ug/ml for C=C[C@@](C)(/C=C/c1ccc(OCCCCN(CCCN(C)C)CCCN(C)C)cc1)CCC=C(C)C came out at 63.3
